Quick list: viability, T/C per entry.
Test system: 138582-337-R-J1-PDC spheroids with HUVEC/MSC, viability
protocol.text: Anticancer human tumor 138582-337-R-J1-PDC patient-derived Merkel cell tumor cell line growth inhibition [IpAb]
condition.context: second compound 10 µM; first compound 0.316 µM; active compounds read low

Examples with answers:
C=CC(=O)N1CCN(c2nc(=O)n(-c3c(C)ccnc3C(C)C)c3nc(-c4c(O)cccc4F)c(F)cc23)C(C)C1 (stereo not drawn) + CC(C)NCC(C(=O)N1CCN(c2ncnc3c2C(C)CC3O)CC1)c1ccc(Cl)cc1 | 47.9%
C=CCn1c(=O)c2cnc(Nc3ccc(N4CCN(C)CC4)cc3)nc2n1-c1cccc(C(C)(C)O)n1 + CC(C)NCC(C(=O)N1CCN(c2ncnc3c2C(C)CC3O)CC1)c1ccc(Cl)cc1 | 33.9%
Cn1ncc(Cl)c1-c1cc(C(=O)NC(CN)Cc2cccc(F)c2)sc1Cl (stereo not drawn) + CC(C)NCC(C(=O)N1CCN(c2ncnc3c2C(C)CC3O)CC1)c1ccc(Cl)cc1 | 51.8%
Cc1nc(NC(=O)N2CCCC2C(N)=O)sc1-c1ccnc(C(C)(C)C(F)(F)F)c1 (stereo not drawn) + CC(C)NCC(C(=O)N1CCN(c2ncnc3c2C(C)CC3O)CC1)c1ccc(Cl)cc1 | 32.9%
Cn1nccc1Nc1nccc(-c2ccn(C(CO)c3ccc(Cl)c(F)c3)c(=O)c2)n1 (stereo not drawn) + CC(C)NCC(C(=O)N1CCN(c2ncnc3c2C(C)CC3O)CC1)c1ccc(Cl)cc1 | 34.2%
COc1c(OCCCN2CCOCC2)ccc2c3n(c(=NC(=O)c4cnc(N)nc4)nc12)CCN3 + CC(C)NCC(C(=O)N1CCN(c2ncnc3c2C(C)CC3O)CC1)c1ccc(Cl)cc1 | 6.62%
CC1(C)CCC(CN2CCN(c3ccc(C(=O)NS(=O)(=O)c4ccc(NCC5CCOCC5)c([N+](=O)[O-])c4)c(Oc4cnc5[nH]ccc5c4)c3)CC2)=C(c2ccc(Cl)cc2)C1 + CC(C)NCC(C(=O)N1CCN(c2ncnc3c2C(C)CC3O)CC1)c1ccc(Cl)cc1 | 41.3%

Okay, next one:
stdin: Check the records and state viability, T/C for CCCS(=O)(=O)Nc1ccc(F)c(C(=O)c2c[nH]c3ncc(-c4ccc(Cl)cc4)cc23)c1F + CC(C)NCC(C(=O)N1CCN(c2ncnc3c2C(C)CC3O)CC1)c1ccc(Cl)cc1
stdout: 43.7%

====

System: 138582-337-R-J1-PDC spheroids with HUVEC/MSC, viability
protocol.text: Anticancer human tumor 138582-337-R-J1-PDC cell line growth inhibition [IpAb]; active = viability on the fitted dose curve at most 10% of control; inactive = the rest;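 further: spheroids exposed to compounds for seven days; 100% = DMSO vehicle control viability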
condition.context: second compound 10 µM; first compound 1 µM
Permitted responses: active, inactive

Example entries and their recorded answers appear below.
Cn1ncc(Cl)c1-c1cc(C(=O)NC(CN)Cc2cccc(F)c2)sc1Cl (stereo not drawn) + CC(C)NCC(C(=O)N1CCN(c2ncnc3c2C(C)CC3O)CC1)c1ccc(Cl)cc1 | inactive
Cn1nccc1Nc1nccc(-c2ccn(C(CO)c3ccc(Cl)c(F)c3)c(=O)c2)n1 (stereo not drawn) + CC(C)NCC(C(=O)N1CCN(c2ncnc3c2C(C)CC3O)CC1)c1ccc(Cl)cc1 | inactive
C=CCn1c(=O)c2cnc(Nc3ccc(N4CCN(C)CC4)cc3)nc2n1-c1cccc(C(C)(C)O)n1 + CC(C)NCC(C(=O)N1CCN(c2ncnc3c2C(C)CC3O)CC1)c1ccc(Cl)cc1 | inactive
CC1(C)CCC(CN2CCN(c3ccc(C(=O)NS(=O)(=O)c4ccc(NCC5CCOCC5)c([N+](=O)[O-])c4)c(Oc4cnc5[nH]ccc5c4)c3)CC2)=C(c2ccc(Cl)cc2)C1 + CC(C)NCC(C(=O)N1CCN(c2ncnc3c2C(C)CC3O)CC1)c1ccc(Cl)cc1 | inactive
Cc1nc(NC(=O)N2CCCC2C(N)=O)sc1-c1ccnc(C(C)(C)C(F)(F)F)c1 (stereo not drawn) + CC(C)NCC(C(=O)N1CCN(c2ncnc3c2C(C)CC3O)CC1)c1ccc(Cl)cc1 | inactive

stdin: Per the records of this test, what outcome belongs to CCCS(=O)(=O)Nc1ccc(F)c(C(=O)c2c[nH]c3ncc(-c4ccc(Cl)cc4)cc23)c1F + CC(C)NCC(C(=O)N1CCN(c2ncnc3c2C(C)CC3O)CC1)c1ccc(Cl)cc1 ?
stdout: inactive

stdin: Any idea what this test logged for COc1c(OCCCN2CCOCC2)ccc2c3n(c(=NC(=O)c4cnc(N)nc4)nc12)CCN3 + CC(C)NCC(C(=O)N1CCN(c2ncnc3c2C(C)CC3O)CC1)c1ccc(Cl)cc1 ?
stdout: active

stdin: // param item: C=CC(=O)N1CCN(c2nc(=O)n(-c3c(C)ccnc3C(C)C)c3nc(-c4c(O)cccc4F)c(F)cc23)C(C)C1 (stereo not drawn) + CC(C)NCC(C(=O)N1CCN(c2ncnc3c2C(C)CC3O)CC1)c1ccc(Cl)cc1 ; yields the recorded call
stdout: inactive

Value source: PubChem BioAssay AID2060343
